# gMFI per entry
Target: T1, human CD300LB transiently expressed on HEK293 cells (human, UniProt A8K4G0 18-201)
T1 construct: CD300LB expression constructs'; also called huCD300LB HEK293
T1 sequence: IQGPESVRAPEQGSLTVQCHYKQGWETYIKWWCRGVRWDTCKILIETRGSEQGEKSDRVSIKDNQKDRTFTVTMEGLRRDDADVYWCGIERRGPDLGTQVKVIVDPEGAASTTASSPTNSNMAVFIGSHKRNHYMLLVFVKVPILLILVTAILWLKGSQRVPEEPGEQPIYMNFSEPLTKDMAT
Assay: flow cytometry, transfected HEK293, 10 ug/mL, isotype subtracted
The answer is to be given in gMFI; state only the numeric part.

// solved cases for gMFI follow
anti-CD300LB antibody CD-02 (antibody, V domains shown) VH: QVQLQQPGAELVRPGSSVKLSCQASGYTFTNYWMHWVRQRPIQGLEWIGNIDPSDSETHYNQKFKDRATLTVDKSSSTAYMQLSSLTSEDSAVYYCARSGVYDDEGGDYWGQGTTLTVSS VL: ENVLTQSPAIMSASPGEKVTMTCSASSSVSYIHWYQQKSSTSPKLWIYDTSKLASGVPGRFSGSGSGNSYSLTISSMETEDVATYYCFQGSGYPLTFGAGTKLELK ... 578
anti-CD300LB antibody CD-08 (antibody, V domains shown) VH: EVQLLESGGGLVQPGGSLRLSCAASGFTFSNAWMSWVRQAPGKGLEWVSVISGSGGRTYYADSVKGRFTISRDNSKNTLYLQMNSLRAEDTAVYYCARDGTTVAPKGMDVWGQGTTVTVSS VL: DIQMTQSPSSLSASVGDRVTITCQASQDINNYVNWYQQKPGKAPKLLIYAASNLQSGVPSRFSGSGSGTDFTLTISSLQPEDFATYYCQQSYSPPYTFGQGTKLEIK ... 774

The binder listed as anti-CD300LB antibody CD-07 (antibody, V domains shown) VH: QVQLVQSGAEVKKPGASVKVSCKASGYTFTNYRMHWVRQAPGQGLEWMGWINPNSGGTIYAQKFQGRVTMTRDTSTSTVYMELSSLRSEDTAVYYCARDLDYWGQGTLVTVSS VL: DIQMTQSPSSLSASVGDRVTITCQASQDISNYLNWYQQKPGKAPKLLIYGASSLQSGVPSRFSGSGSGTDFTLTISSLQPEDFATYYCQQSYSTPWTFGPGTKVEIK has a reported gMFI of 686
